system: RXF 631; assay: NCI tumour cell line growth inhibition, 48 h
Activity calls are given as the source filed them. Cut-off read from the data, not from the text of the source: active = GI50 up to about 1.1 µM and inactive = higher.
Provide the recorded GI50 for the entries that follow.

Provide one value: measured GI50 of O=C(NCCCCCCCCCCCCNC(=O)c1cnc2ccccc2n1)c1cnc2ccccc2n1 99.5 µM (inactive)

Provide one value: measured GI50 of C1=CCN(c2ccccc2)CC1 > 100 µM (inactive)

Provide one value: measured GI50 of CN/N=C(/CCN1CCCC1)CC(c1ccccc1)c1c(O)c2ccccc2oc1=O (configuration not stated) > 100 µM (inactive)

Provide one value: measured GI50 of O=C(O)C(SC(=S)c1ccc(C(=S)SC(C(=O)O)c2ccccc2)cc1)c1ccccc1 (configuration not stated) > 100 µM (inactive)

Provide one value: measured GI50 of CCCN(CCCCC(NC(C)=O)C(=O)NCc1ccccc1)C(=O)NCCCl (configuration not stated) > 100 µM (inactive)

Provide one value: measured GI50 of CC(C)=CCC/C(C)=C/CC/C(C)=C/C(O)c1ccccc1 (configuration not stated) 18 µM (inactive)

Provide one value: measured GI50 of O=C(NCCCN1CCN(CCCNC(=O)c2cnc3ccccc3n2)CC1)c1cnc2ccccc2n1 > 100 µM (inactive)

* * *

system: Hs-578T; test: NCI tumour cell line growth inhibition, 48 h
Calls of active or inactive are those of the source. No stated cut-off is given here; in the data, active = GI50 up to about 1.1 µM and inactive = higher.
Choose the fitting class; nothing outside label 1 = active, label 0 = inactive is accepted.

Test call for this compound, please: O=C(O)c1cccc2cccc(-c3cccc4cccc(C(=O)O)c34)c12 label 0

Test call for this compound, please: N#CCN1CCCCCc2ccccc21 label 0

Test call for this compound, please: CCOC(=S)SC/C(=N\OC(C)(C)OC)c1ccccc1 label 0

Test call for this compound, please: Nc1ccc(S(=O)(=O)c2ccc(NCN3C(=O)NC(=O)C(=O)C3=O)cc2)cc1 label 0

Test call for this compound, please: Cc1nc2sc(C(=O)c3ccc(Cl)cc3)c(N)c2c(-c2ccccc2Cl)c1C(=O)Nc1ccccc1 label 0

Test call for this compound, please: COc1ccc2[nH]c3c(c2c1)CC(=O)N1CCCC(CC3O)C1 (stereo not drawn) label 0

Test call for this compound, please: CC(C)=CCC[C@@H](C)C1=C(O)C(=O)C(C)=C(Nc2ccccc2I)C1=O label 0

Test call for this compound, please: C[C@H]1O[C@@H](O[C@H]2[C@@H](O)C[C@H](O[C@H]3[C@@H](O)C[C@H](O[C@H]4CC[C@@]5(C)[C@H](CC[C@@H]6[C@@H]5CC[C@]5(C)[C@@H](C7=CC(=O)OC7)[C@@H](O)C[C@]65O)C4)O[C@@H]3C)O[C@@H]2C)C[C@H](O)[C@@H]1O label 1

Test call for this compound, please: c1ccc2c(c1)c1c(c3ccccc32)CN2CCCC2C1 (stereo not drawn) label 0

Test call for this compound, please: O=c1[nH]c(N/N=C\C(O)C(O)C(O)C(O)CO)nc2ccccc12 (stereo not drawn) label 0

Test call for this compound, please: O=C1/C(=N\n2c(S)nnc2-c2ccncc2)c2cc(Cl)ccc2N1CN1CCCCC1 label 0

Test call for this compound, please: NS(=O)(=O)c1nn2c(Br)c(-c3ccccc3)nc2s1 label 0

Test call for this compound, please: O=C1NC(N2CCOCC2)=N/C1=C\c1ccc(Cl)cc1 label 0

Test call for this compound, please: NC(CP(=O)(O)O)C(=O)O (stereo not drawn) label 0

Test call for this compound, please: O=c1c2c3c(sc2nc2n1N=CN(c1ccc(F)cc1)C2)CCCC3 label 0

Test call for this compound, please: c1ccc2sc(C3(N4CCC5(CC4)OCCO5)CCCCC3)cc2c1 label 0

Test call for this compound, please: N#Cc1c(N2CCCC2)ncn(-c2ccccc2)c1=S label 0

Test call for this compound, please: N/C(=N\c1ccc(Cl)cc1)NS(=O)(=O)c1cccc2nsnc12 label 0

* * *

system: SNB-19; assay: NCI tumour cell line growth inhibition, 48 h
Calls of active or inactive are those of the source. No stated cut-off is given here; in the data, active = GI50 up to about 1.1 µM and inactive = higher.
MEASURED QUANTITY: GI50

Provide one value: measured GI50 of COC(=O)/C=C1\C(=O)Nc2ccc(Br)cc21 3.24 µM (inactive)

Provide one value: measured GI50 of Cc1cc(C)nc(NC(=O)c2ccc(Br)s2)c1 > 100 µM (inactive)

Provide one value: measured GI50 of O=[N+]([O-])CCc1cccc([N+](=O)[O-])c1 > 100 µM (inactive)

Provide one value: measured GI50 of O=C(NCCCN1CCN(CCCNC(=O)c2cnc3ccccc3n2)CC1)c1cnc2ccccc2n1 > 100 µM (inactive)

Provide one value: measured GI50 of C#CCNC(=O)NC(CCCNC(=O)OCc1ccccc1)C(=O)OCc1ccccc1 (stereo unspecified) > 100 µM (inactive)

Provide one value: measured GI50 of CN1CCN(Cc2ccccc2)CC1CC#N (stereo unspecified) > 100 µM (inactive)

* * *

Provide the recorded GI50 for the entries that follow.
tested on: RPMI-8226; test: NCI tumour cell line growth inhibition, 48 h
Activity calls are given as the source filed them. No stated cut-off is given here; in the data, active = GI50 up to about 1.1 µM and inactive = higher.

State, for RPMI-8226, measured GI50 of the compound listed here: Cc1nnc(-n2c(O)cc(=O)n(-c3ccccc3)c2=S)nc1/C=C/c1ccc(N(C)C)cc1 11.2 µM (inactive)

State, for RPMI-8226, measured GI50 of the compound listed here: CC1C(c2ccccc2O)c2cc3c(cc2OC1N1CCOCC1)OCO3 (stereo unspecified) 15.5 µM (inactive)

State, for RPMI-8226, measured GI50 of the compound listed here: COc1ccc(/C=N/NS(=O)(=O)c2ccc(/C=C3\NC(=O)NC3=O)cc2)cc1 > 100 µM (inactive)

State, for RPMI-8226, measured GI50 of the compound listed here: COC1=C2C[C@](OC)(C#CC=CC#CC2O)CC1(C)C (stereo partly specified) 95.5 µM (inactive)

State, for RPMI-8226, measured GI50 of the compound listed here: CCOP(=O)(OCC)C(c1ccc(F)cc1)N(C(=O)NC(F)(F)F)c1ccc(OC)cc1 (stereo unspecified) > 100 µM (inactive)

State, for RPMI-8226, measured GI50 of the compound listed here: CC(=O)O[C@H]1CCC2[C@@H]3CCC4Nc5c(cnn5-c5ccccc5)C[C@]4(C)C3CC[C@@]21C (stereo partly specified) 4.2 µM (inactive)

* * *

system: MCF7; experiment: NCI tumour cell line growth inhibition, 48 h
The source made the active and inactive calls. No stated cut-off is given here; in the data, active = GI50 up to about 1.1 µM and inactive = higher.
MEASURED QUANTITY: GI50

Provide one value: measured GI50 of C/C(C[n+]1ccccc1)=N\N=C(N)N > 100 µM (inactive)

Provide one value: measured GI50 of c1ccc2c(c1)nc1n2CCSC1 > 100 µM (inactive)

Provide one value: measured GI50 of COC(=O)C(=O)C(C(=O)OC)C(=O)C(=O)Nc1ccccc1C(N)=O (centres undefined) > 100 µM (inactive)

Provide one value: measured GI50 of CC12c3c4ccc(C=O)c3Oc3ccc(C=O)c(c31)Oc1ccc(C=O)c(c12)O4 > 25 µM (inactive)

* * *

Provide the recorded GI50 for the entries that follow.
test system: SK-MEL-5; assay: NCI tumour cell line growth inhibition, 48 h
Calls of active or inactive are those of the source. Rule as the data show it: active = GI50 up to about 1.1 µM and inactive = higher.

Provide one value: measured GI50 of O=C1N/C(=C\[N+](=O)[O-])c2ccccc21 > 100 µM (inactive)

Provide one value: measured GI50 of S=C(NCc1ccccc1)N/N=C/c1ccccn1 3.52 µM (inactive)

Provide one value: measured GI50 of COc1cc(C(=O)CC2OC(=O)C(Cl)=C2Cl)ccc1Cl (centres undefined) > 100 µM (inactive)

Provide one value: measured GI50 of CCOC(=O)n1cncc1CC(NC(=O)Cc1c(C(=O)C=C(C)C)[nH]c2ccccc12)C(=O)OC (centres undefined) 18 µM (inactive)

* * *

tested on: SW-620; assay: NCI tumour cell line growth inhibition, 48 h
Calls of active or inactive are those of the source. Cut-off read from the data, not from the text of the source: active = GI50 up to about 1.1 µM and inactive = higher.
Provide the recorded GI50 for the entries that follow.

Provide one value: measured GI50 of CN1CCN(Cc2ccccc2)CC1CC#N (stereo not drawn) > 100 µM (inactive)

Provide one value: measured GI50 of CC(C)=CCNc1nc(Cl)nc2[nH]cnc12 > 100 µM (inactive)

Provide one value: measured GI50 of O=C1NC(=O)C(c2c[nH]c3cc(Br)ccc23)=C1c1cnc[nH]1 55.8 µM (inactive)

Provide one value: measured GI50 of Cc1ccc(C(=O)/C=C/c2ccccc2Cl)cc1 13.6 µM (inactive)

Provide one value: measured GI50 of COc1cc(/C=C/C=C2\CCC/C(=C\C=C\c3ccc(O)c(OC)c3)C2=O)ccc1O 6.84 µM (inactive)

Provide one value: measured GI50 of CC(=O)N1CC(C)(C)c2c1cc(C)c(O)c2C > 100 µM (inactive)

Provide one value: measured GI50 of COc1ccc(Nc2cnc3cc(N)ccc3n2)cc1OC > 100 µM (inactive)

Provide one value: measured GI50 of NC1=NC(c2ccc(Cl)cc2)N(c2ccc(S(=O)(=O)Nc3ncccn3)cc2)C(N)=N1 (stereo not drawn) > 100 µM (inactive)

Value source: ChEMBL document CHEMBL1201862
